Literature compilation of IC50 measurements on Aldo-keto reductase family 1 member B1 (Rattus norvegicus, UniProt P07943).
Kindly answer with a numeric value in µM, unit omitted.

q: Identify measured IC50 associated with COc1ccc(C(=O)N(OCc2ccccc2Cl)C(C)C(=O)O)cc1 (stereo not given)
a: 2.38

q: State its IC50: CC(=O)C1=C(O)C2=CO[C@H](C)[C@@H](C)C2=C(C)C1=O
a: 8.71

q: Please look at this molecule and report its IC50: COc1cc(O[C@@H]2O[C@H](CO)[C@@H](O)[C@H](O)[C@H]2O)cc(-c2ccc(O)c(O)c2)c1
a: 5.6

---

Literature survey of pIC50 (system: Aldo-keto reductase family 1 member B1 (Rattus norvegicus)).
Bear in mind: pIC50 is minus log10 of a mol/L concentration; give just that figure.

Some solved cases for reference:
>  <molecule>
COc1ccc(CN2C(=O)C(C(C#N)C(=O)O)c3ccccc32)cc1 (stereo not given)

>  <pIC50>
6.20

$$$$
>  <molecule>
COc1ccc(-c2cccc3c2oc(=O)n3CC(=O)O)cc1OC

>  <pIC50>
7.20

$$$$
>  <molecule>
Cc1ccc(S(=O)(=O)NCC(=O)O)cc1

>  <pIC50>
4.49

$$$$
>  <molecule>
COc1ccc(CN2CN(CC(=O)O)c3ccc(C)cc3S2(=O)=O)cc1

>  <pIC50>
4.74

$$$$
>  <molecule>
O=C(O)c1cn(Cc2ccc(Br)cc2)c2ccccc2c1=O

>  <pIC50>
5.82

$$$$

q: System Aldo-keto reductase family 1 member B1 (Rattus norvegicus). Read-out pIC50. Item COc1ccc(S(=O)(=O)N[C@@H](C(=O)O)c2ccccc2)cc1 . Report value.
a: 4.44

q: // fetch pIC50 for C=C(C)[C@@H]1CC=C(COC2OC(CO)[C@H](O)[C@H](O)[C@H]2O)CC1 (stereo not given in full) ; system: Aldo-keto reductase family 1 member B1 (Rattus norvegicus)
a: 4.26

q: Please tell me the measured pIC50 for O=C(O)Cn1c(=O)n(Cc2ccc(Br)cc2F)c(=O)c2ccc(Cl)cc21 ; system: Aldo-keto reductase family 1 member B1 (Rattus norvegicus).
a: 8.36

q: Give Aldo-keto reductase family 1 member B1 (Rattus norvegicus) pIC50 for the following molecule: N#CC(=C\c1ccco1)/C=C1\SC(=S)N(CC(=O)O)C1=O
a: 6.17

q: Enter measured pIC50, system Aldo-keto reductase family 1 member B1 (Rattus norvegicus), for the molecule shown: CONC(=O)c1cn(Cc2ccccc2)c2ccccc2c1=O
a: 4.89

q: // fetch pIC50 for O=C(c1ccccc1)c1ccn(-c2ccc(O)c(F)c2)c1 ; system: Aldo-keto reductase family 1 member B1 (Rattus norvegicus)
a: 5.00

---

log10(IC50) values for Aldo-keto reductase family 1 member B1 (Rattus norvegicus) compiled from several publications are listed below.
Scale: decimal log of IC50, IC50 in µM.

>  <structureString>
O=C(O)CN/N=c1\n(Cc2ccccc2)c2ccccc2n1C(=O)C(=O)O

>  <studySystem>
Aldo-keto reductase family 1 member B1 (Rattus norvegicus)

>  <recordedValue>
0.65

$$$$
>  <structureString>
O=C(O)[C@@H](NS(=O)(=O)c1ccc(F)cc1)c1ccccc1

>  <studySystem>
Aldo-keto reductase family 1 member B1 (Rattus norvegicus)

>  <recordedValue>
1.40

$$$$
>  <structureString>
O=C(O)CNS(=O)(=O)c1ccc(F)cc1

>  <studySystem>
Aldo-keto reductase family 1 member B1 (Rattus norvegicus)

>  <recordedValue>
1.63

$$$$
>  <structureString>
O=C(O)Cn1c(=O)c(CCc2ccc(O)cc2)nc2ccccc21

>  <studySystem>
Aldo-keto reductase family 1 member B1 (Rattus norvegicus)

>  <recordedValue>
-0.10

$$$$
>  <structureString>
O=[N+]([O-])c1cccc(COc2ccc3c(c2)no[n+]3[O-])c1

>  <studySystem>
Aldo-keto reductase family 1 member B1 (Rattus norvegicus)

>  <recordedValue>
-0.34

$$$$

Next compound, please.
q: Supply log10(IC50) measured with Aldo-keto reductase family 1 member B1 (Rattus norvegicus) for CCOC(=O)c1cc(=O)c2ccc(O)cc2o1 .
a: 0.36
